The reported measurements were obtained from PubChem BioAssay (NCATS).

# Test system: CP286
# MEASUREMENT NOTES: qHTS profiling for inhibitors of Plasmodium falciparum proliferation (AID 504749); also: nearly all actives have a fitted effect of over 60% in size
# REPORTED CONDITIONS: P. falciparum in erythrocytes, SYBR Green DNA, 72 h; series mostly up to 12.8 µM
Results filed as inconclusive are left out. Calls of active or inactive are those of the source. Calls follow the shape of the dose curve; as a rule, active = well fitted inhibition curve with a large enough effect; inconclusive = small, poorly fitted or top-dose-only effect; inactive = flat fitted curve, though single readings scatter.
Classes to choose from: label 1 for active, label 0 for inactive

Q: Look up the recorded call for `OCCN1CCN(CCC=C2c3ccccc3Sc3ccc(Cl)cc32)CC1` in this test.
Result: label 1

Q: Look up the recorded call for `CN(C)CCOC(=O)[C@@H](c1ccccc1)C1(O)CCCC1` in this test.
Result: label 0

Q: Look up the recorded call for `CN1CCO[C@H](c2ccccc2)c2ccccc2C1` in this test.
Result: label 0

Q: Look up the recorded call for `C[C@@H](C(=O)O)c1ccc(C(=O)c2ccccc2)s1` in this test.
Result: label 0

Q: Look up the recorded call for CC(C)C1CCC(C(=O)NC(Cc2ccccc2)C(=O)O)CC1 (configuration not stated) in this test.
Result: label 0

Q: Look up the recorded call for `CC(=O)O[C@]1(C(C)=O)CC[C@@H]2[C@@H]3C=C(C)C4=CC(=O)CC[C@@]4(C)[C@H]3CC[C@]21C` in this test.
Result: label 0

Q: Look up the recorded call for `C1CCN2C[C@@H]3C[C@@H](CN4CCCC[C@H]34)[C@H]2C1` in this test.
Result: label 0

Q: Look up the recorded call for `C[C@H](CCC(=O)O)[C@H]1CC[C@@H]2[C@@H]3[C@@H](O)C[C@H]4C[C@@H](O)CC[C@@]4(C)[C@H]3CC[C@@]21C` in this test.
Result: label 0

Q: Look up the recorded call for CCC(CCC(C)C1CCC2C3CC=C4CC(O)CC[C@@]4(C)C3CC[C@@]12C)C(C)C (some centres not stated) in this test.
Result: label 0

Q: Look up the recorded call for `CC[C@@H]1OC(=O)[C@H](C)[C@H](O[C@@H]2C[C@](C)(OC)[C@H](O)[C@H](C)O2)[C@H](C)[C@H](O[C@@H]2O[C@@H](C)C[C@@H](N(C)C)[C@@H]2O)[C@](C)(O)C[C@H](C)C(=NOCOCCOC)[C@H](C)[C@H](O)[C@]1(C)O` in this test.
Result: label 0

Q: Look up the recorded call for `CCN[C@@H]1C[C@H](N)[C@H](O[C@H]2OC(CN)=CC[C@H]2N)[C@@H](O)[C@H]1O[C@H]1OC[C@@](C)(O)[C@@H](NC)[C@@H]1O` in this test.
Result: label 0

Q: Look up the recorded call for `O=C(O)COCCN1CCN([C@@H](c2ccccc2)c2ccc(Cl)cc2)CC1` in this test.
Result: label 0

---

# Tested on: AS120
# MEASUREMENT NOTES: qHTS profiling for inhibitors of Plasmodium falciparum proliferation (AID 504749); also: nearly all actives have a fitted effect of over 60% in size
# REPORTED CONDITIONS: P. falciparum in erythrocytes, SYBR Green DNA, 72 h; series mostly up to 12.8 µM
Inconclusive results are not listed. Activity calls are given as the source filed them. Calls follow the shape of the dose curve; as a rule, active = well fitted inhibition curve with a large enough effect; inconclusive = small, poorly fitted or top-dose-only effect; inactive = flat fitted curve, though single readings scatter.
Classes to choose from: t (active), f (inactive)

Q: Look up the recorded call for `C[N+]12CCC(CC1)[C@@H](OC(=O)C(O)(c1ccccc1)c1ccccc1)C2` in this test.
Result: f

Q: Look up the recorded call for OCC1O[C@H](OC2C(CO)O[C@@](O)(CO)C2O)C(O)C(O)C1O (stereo partly drawn) in this test.
Result: f

Q: Look up the recorded call for `O=C(OC[C@@H](O)CO)c1ccccc1Nc1ccnc2cc(Cl)ccc12` in this test.
Result: f

Q: Look up the recorded call for `CCOC(=O)O[C@]1(C(=O)COC(=O)CC)CC[C@@H]2[C@@H]3CCC4=CC(=O)C=C[C@@]4(C)[C@H]3[C@H](O)C[C@]21C` in this test.
Result: f

Q: Look up the recorded call for `CC1(C)S[C@@H]2[C@H](NC(=O)[C@@H](N)c3ccccc3)C(=O)N2[C@H]1C(=O)O[C@H]1OC(=O)c2ccccc21` in this test.
Result: f

Q: Look up the recorded call for `NC(=O)c1ccc[n+]([C@@H]2O[C@H](COP(=O)([O-])OP(=O)(O)OC[C@H]3O[C@@H](n4cnc5c(N)ncnc54)[C@@H](O)[C@@H]3O)[C@@H](O)[C@@H]2O)c1` in this test.
Result: f

Q: Look up the recorded call for `COC(=O)[C@@H]1[C@@H]2C[C@H]3c4[nH]c5cc(OC)ccc5c4CCN3C[C@@H]2C[C@H](OC(=O)/C=C\c2cc(OC)c(OC)c(OC)c2)[C@H]1OC` in this test.
Result: t

Q: Look up the recorded call for `CC(=O)C[C@H](c1ccc([N+](=O)[O-])cc1)c1c(O)c2ccccc2oc1=O` in this test.
Result: f
